Data provenance: patent US20230235058A1

Target: chimeric BTLA of humanised-BTLA mice (human extracellular region, murine transmembrane and signaling … (human; mouse, UniProt Q7TSA3 184-306, limits assumed); further: test concentration or dose not given here
Sequence (Q7TSA3 other isoform, or with tags, fused parts or gaps mutant limits assumed): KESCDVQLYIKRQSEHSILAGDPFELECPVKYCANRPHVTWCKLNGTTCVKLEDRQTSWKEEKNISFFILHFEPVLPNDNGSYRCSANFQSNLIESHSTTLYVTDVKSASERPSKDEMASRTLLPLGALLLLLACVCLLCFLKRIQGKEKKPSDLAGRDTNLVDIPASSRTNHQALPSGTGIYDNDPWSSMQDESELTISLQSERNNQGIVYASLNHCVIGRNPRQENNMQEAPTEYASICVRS
Assay: cell-based or functional assay
ENDPOINT: MLR (CD4 T cell proliferation) repeat 1 (% inhibition)
Report the figure in % inhibition without appending any unit label.

Request: Consider the binder 8C4 (antibody, IgG1, V domains shown, mIgG1) VH: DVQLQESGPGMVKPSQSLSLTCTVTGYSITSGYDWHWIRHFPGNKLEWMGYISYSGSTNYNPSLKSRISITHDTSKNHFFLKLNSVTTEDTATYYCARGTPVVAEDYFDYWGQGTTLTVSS VL: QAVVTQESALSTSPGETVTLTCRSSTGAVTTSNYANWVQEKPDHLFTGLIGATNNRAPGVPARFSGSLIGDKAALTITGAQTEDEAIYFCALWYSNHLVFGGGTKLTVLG and give its recorded MLR (CD4 T cell proliferation) repeat 1.
Response: 42

Request: Write down MLR (CD4 T cell proliferation) repeat 1 measured for item 15C6 (antibody, IgG1, V domains shown, mIgG1) VH: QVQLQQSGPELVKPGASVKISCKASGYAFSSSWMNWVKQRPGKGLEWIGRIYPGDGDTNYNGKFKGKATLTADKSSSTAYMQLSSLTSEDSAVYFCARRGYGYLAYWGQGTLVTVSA VL: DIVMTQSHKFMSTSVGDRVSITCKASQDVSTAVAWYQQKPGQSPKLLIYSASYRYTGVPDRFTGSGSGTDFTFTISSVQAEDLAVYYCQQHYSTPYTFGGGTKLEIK
Response: 19

Others:
Request: Indicate the recorded MLR (CD4 T cell proliferation) repeat 1 value for this binder: 11.5.1 D265A (antibody, V domains shown) VH: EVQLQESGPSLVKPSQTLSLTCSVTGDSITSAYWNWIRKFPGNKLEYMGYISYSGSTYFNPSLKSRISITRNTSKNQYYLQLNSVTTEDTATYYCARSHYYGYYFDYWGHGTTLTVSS VL: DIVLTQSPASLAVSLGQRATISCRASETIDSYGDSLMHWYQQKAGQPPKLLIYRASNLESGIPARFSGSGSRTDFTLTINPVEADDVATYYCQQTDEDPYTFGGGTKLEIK
Response: -3
